Biological target: Fatty acid synthase (Homo sapiens, UniProt P49327)
Sequence (P49327 whole entry): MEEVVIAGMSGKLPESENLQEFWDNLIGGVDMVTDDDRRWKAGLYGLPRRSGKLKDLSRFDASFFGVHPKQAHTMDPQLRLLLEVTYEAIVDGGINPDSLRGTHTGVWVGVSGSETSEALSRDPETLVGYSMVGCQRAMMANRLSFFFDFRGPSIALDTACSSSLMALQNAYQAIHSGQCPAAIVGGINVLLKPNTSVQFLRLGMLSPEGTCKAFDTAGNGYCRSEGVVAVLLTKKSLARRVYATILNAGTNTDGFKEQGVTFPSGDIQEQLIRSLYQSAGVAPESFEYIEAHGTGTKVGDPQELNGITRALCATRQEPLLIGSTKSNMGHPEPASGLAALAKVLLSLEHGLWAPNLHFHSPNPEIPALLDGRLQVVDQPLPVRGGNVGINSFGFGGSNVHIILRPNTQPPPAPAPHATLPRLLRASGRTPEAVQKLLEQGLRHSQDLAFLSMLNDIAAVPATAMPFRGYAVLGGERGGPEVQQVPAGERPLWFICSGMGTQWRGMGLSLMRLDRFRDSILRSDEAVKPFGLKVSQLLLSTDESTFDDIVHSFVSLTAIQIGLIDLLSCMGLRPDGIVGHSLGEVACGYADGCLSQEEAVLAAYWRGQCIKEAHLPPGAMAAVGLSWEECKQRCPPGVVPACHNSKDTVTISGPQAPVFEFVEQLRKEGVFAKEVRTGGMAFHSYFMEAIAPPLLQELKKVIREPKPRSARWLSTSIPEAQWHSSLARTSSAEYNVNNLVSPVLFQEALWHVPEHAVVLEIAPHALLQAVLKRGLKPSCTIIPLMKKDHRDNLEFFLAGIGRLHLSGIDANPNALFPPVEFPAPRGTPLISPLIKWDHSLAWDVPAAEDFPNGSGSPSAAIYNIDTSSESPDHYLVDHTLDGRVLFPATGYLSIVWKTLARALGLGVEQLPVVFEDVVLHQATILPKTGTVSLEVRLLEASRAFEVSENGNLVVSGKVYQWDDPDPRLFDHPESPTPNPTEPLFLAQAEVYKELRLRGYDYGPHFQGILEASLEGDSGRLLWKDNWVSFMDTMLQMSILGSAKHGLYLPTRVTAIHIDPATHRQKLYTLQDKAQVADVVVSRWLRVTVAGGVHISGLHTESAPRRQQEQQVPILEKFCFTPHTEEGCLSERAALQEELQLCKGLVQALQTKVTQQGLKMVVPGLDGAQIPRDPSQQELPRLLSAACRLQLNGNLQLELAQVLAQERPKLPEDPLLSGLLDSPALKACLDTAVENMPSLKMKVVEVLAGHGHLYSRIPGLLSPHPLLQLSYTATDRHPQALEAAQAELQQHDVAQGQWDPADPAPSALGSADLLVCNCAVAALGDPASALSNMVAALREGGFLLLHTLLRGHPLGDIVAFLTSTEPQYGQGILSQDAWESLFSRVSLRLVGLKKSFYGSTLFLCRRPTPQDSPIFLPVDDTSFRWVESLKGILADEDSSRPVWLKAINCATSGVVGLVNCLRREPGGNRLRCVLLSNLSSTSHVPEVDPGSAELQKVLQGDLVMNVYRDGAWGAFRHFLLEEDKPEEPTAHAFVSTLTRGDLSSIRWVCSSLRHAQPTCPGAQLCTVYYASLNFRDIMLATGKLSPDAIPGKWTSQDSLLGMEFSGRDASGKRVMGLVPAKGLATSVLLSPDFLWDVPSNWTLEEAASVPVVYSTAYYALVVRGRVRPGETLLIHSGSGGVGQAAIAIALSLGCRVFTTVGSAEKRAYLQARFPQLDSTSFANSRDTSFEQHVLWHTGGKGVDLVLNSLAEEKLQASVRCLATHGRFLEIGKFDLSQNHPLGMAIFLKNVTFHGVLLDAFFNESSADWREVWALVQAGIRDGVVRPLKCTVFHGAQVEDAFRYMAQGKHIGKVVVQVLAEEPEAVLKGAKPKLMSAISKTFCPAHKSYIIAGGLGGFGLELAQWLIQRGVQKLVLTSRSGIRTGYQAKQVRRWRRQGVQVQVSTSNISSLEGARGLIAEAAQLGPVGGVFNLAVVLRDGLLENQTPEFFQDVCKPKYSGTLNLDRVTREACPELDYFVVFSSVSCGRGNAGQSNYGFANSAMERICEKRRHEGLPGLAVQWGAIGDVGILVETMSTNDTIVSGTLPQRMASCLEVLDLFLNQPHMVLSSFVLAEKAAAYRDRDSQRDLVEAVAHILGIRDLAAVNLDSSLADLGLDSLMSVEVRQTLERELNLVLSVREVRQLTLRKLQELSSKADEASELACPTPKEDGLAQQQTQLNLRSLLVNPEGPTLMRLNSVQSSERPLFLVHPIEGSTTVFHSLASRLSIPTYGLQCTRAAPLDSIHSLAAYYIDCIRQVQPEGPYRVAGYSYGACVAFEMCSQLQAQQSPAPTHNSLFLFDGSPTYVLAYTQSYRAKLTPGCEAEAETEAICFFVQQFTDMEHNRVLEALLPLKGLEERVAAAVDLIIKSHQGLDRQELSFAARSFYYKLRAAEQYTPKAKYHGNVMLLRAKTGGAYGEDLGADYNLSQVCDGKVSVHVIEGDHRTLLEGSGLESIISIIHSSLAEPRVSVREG
Experiment: inhibition of human FAS-TE enzyme activity – biochemical, kinetic fluorescence intensity, dose response (AID 624326);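 also: rate of fluorescence rise from hydrolysis of a fluorogenic O-methyl fluorescein ester substrate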
Assay type: functional
The source made the active and inactive calls.
The reply should be one of these categories: active, inactive

Cc1ccc(-n2[nH]c(C)c(/C=N/Nc3ccc([N+](=O)[O-])cc3[N+](=O)[O-])c2=O)cc1C : inactive
COc1ccc(C(=O)N/C(=C\c2cn(S(=O)(=O)N(C)C)c3ccccc23)C(=O)N2CCCC2)cc1 : active

Moving on to the next compound.
Ask: Which outcome was entered for the compound `CCc1ccc(S(=O)(=O)ON2C(=O)c3ccccc3C2=O)cc1` in this test?
Reply: active

====

Molecular target: Rac GTPase-activating protein 1 (Homo sapiens)
Sequence (Q9H0H5 whole entry): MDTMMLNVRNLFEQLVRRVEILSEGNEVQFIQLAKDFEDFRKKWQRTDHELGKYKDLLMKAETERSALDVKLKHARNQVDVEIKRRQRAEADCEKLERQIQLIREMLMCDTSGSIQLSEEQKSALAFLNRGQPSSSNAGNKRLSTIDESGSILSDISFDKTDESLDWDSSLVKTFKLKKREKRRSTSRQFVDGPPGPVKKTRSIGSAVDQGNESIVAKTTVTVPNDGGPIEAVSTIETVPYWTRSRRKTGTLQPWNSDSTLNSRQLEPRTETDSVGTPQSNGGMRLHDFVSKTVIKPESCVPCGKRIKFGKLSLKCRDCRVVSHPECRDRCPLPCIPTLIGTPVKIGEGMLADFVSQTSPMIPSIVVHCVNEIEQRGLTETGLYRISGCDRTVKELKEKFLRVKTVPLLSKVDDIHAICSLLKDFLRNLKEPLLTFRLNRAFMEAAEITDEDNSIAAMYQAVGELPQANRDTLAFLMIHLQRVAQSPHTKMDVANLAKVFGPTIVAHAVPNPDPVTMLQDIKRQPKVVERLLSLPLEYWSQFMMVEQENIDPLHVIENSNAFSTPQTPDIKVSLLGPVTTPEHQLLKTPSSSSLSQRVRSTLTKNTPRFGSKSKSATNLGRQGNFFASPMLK
Test: blockers of MgcRacGAP-driven Rac1 GTP hydrolysis – biochemical, ADP Hunter fluorescence, primary and confirmatory, confirmation (AID 624330)
Format: functional
Calls of active or inactive are those of the source.
Recorded endpoint: IC50

C/C(=N\NC(=O)c1cccc(N/N=C(\C)c2cc(O)ccc2O)c1)c1cc(O)ccc1O : 67.8 µM (active)
CCN(c1ccccc1)S(=O)(=O)c1ccc(Cl)c(NC(=O)CN(C)C2CCN(C)CC2)c1 : 80.2 µM (active)
COc1cc2c(ccc3c4cc(OC)c(OC)cc4c[n+](C)c23)cc1O : 42.5 µM (active)
CN(C)c1ccc(NC(=O)c2cccc(N3C(=O)C4C5C=CC(C5)C4C3=O)c2)cc1 (stereo unspecified) : 49.2 µM (active)
Cc1ccc(/C=N/Nc2ccc(C(=O)O)cc2)s1 : 89.2 µM (active)

Your task in this section: give IC50 for each listed record.
1. COc1cc2nc(=S)n(CCCN3CCOCC3)c(N)c2cc1OC
2. O=c1ccn(-c2ccccc2)[nH]1
3. COc1cc(/C=N/N=C2\CC3CCC2(C)C3(C)C)ccc1O (stereo unspecified)
4. COc1ccc(CN(C)CC(=O)Nc2ccc(Cl)cc2C(F)(F)F)c(OC)c1
5. CN(C)c1cc2c3ccccc3n(C)c2cc1N
6. Cc1ccc2c(c1)C(C)CC(C)(C)N2C(=O)CN1CCN(C)CC1 (stereo unspecified)
7. COc1cc(C(=O)N/N=C/c2cn(Cc3ccccc3)c3ccccc23)ccc1O
8. COc1cc(/C=N/Nc2nc(C)cc(C)n2)ccc1O

Reply:
202 µM (active)
46.9 µM (active)
54.4 µM (active)
84.4 µM (active)
12.7 µM (active)
73.3 µM (active)
90.1 µM (active)
47.1 µM (active)

Your task in this section: give IC50 for each listed record.
1. CCN1CCN(c2ccc(/N=C/c3ccccc3O)cc2)CC1
2. O=[N+]([O-])c1cc([N+](=O)[O-])c2nonc2c1Nc1ccc(O)cc1
3. CN(C)c1ccc2cc(S(=O)(=O)O)cc(O)c2c1
4. COc1ccc(/C=N/Nc2ncnc3sc4c(c23)CCCC4)cc1O
5. Oc1ccc(Nc2ncnc3c2oc2ccccc23)cc1
6. Cc1oc(-c2ccccc2)cc1C(=O)Nc1ccc(N(C)C)cc1

Reply:
20.8 µM (active)
56.8 µM (active)
42.9 µM (active)
56.1 µM (active)
15 µM (active)
62.3 µM (active)

Your task in this section: give IC50 for each listed record.
1. Nc1ccc2[nH]c(CCCCc3nc4ccccc4[nH]3)nc2c1
2. Oc1ccc2ccc(Cl)cc2c1

Reply:
1. 57.3 µM (active)
2. 41.9 µM (active)

====

Molecular target: Short transient receptor potential channel 4 (Mus musculus, UniProt Q9QUQ5)
Sequence (Q9QUQ5 whole entry): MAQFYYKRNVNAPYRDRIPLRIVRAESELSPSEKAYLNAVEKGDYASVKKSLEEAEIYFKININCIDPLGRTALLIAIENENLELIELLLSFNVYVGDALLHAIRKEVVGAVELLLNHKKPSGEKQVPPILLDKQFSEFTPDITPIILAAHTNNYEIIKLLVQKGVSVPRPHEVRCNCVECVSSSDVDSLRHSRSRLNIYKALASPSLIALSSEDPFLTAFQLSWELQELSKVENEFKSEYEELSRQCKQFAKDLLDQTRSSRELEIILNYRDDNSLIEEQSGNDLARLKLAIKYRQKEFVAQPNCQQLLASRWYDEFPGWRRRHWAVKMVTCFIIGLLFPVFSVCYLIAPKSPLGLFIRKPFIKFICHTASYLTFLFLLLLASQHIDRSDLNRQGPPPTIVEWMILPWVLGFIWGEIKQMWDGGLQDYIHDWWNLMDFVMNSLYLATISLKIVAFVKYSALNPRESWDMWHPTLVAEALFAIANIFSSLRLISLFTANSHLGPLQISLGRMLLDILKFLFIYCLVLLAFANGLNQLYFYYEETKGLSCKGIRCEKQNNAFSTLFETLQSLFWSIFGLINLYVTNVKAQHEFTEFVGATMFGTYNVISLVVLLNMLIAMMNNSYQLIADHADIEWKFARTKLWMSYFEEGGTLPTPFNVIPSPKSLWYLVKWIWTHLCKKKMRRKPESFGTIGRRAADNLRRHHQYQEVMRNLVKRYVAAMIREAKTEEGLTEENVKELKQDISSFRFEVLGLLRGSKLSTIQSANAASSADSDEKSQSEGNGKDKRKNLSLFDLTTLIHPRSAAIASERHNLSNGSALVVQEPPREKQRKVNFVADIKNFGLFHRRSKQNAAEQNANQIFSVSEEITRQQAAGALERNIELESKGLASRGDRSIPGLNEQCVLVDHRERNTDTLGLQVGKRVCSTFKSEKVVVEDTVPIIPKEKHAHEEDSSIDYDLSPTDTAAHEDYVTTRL
Assay: calcium entry via TRPC4 opening agents – cell-based, HEK293 TRPC4/mu-opioid, Fluo-4 calcium, dose response (AID 434937)
Assay type: functional
Calls of active or inactive are those of the source.
Recorded endpoint: EC50

CN(C)CCCN(C(=O)c1ccc(S(=O)(=O)N2CCc3ccccc3C2)cc1)c1nc2ccc(F)cc2s1 : 596 nM (active)
CN1CCCC(OC(=O)c2cc(Cl)cc(Cl)c2)C1 (stereo not drawn) : 188 nM (active)
Cc1ccc(-c2nn(-c3cccc(F)c3)cc2CNCc2cccnc2)o1 : 2660 nM (active)
CCn1cc(CNCc2cn(-c3ccccc3C)nc2-c2ccc(OC)c(F)c2)cn1 : 1330 nM (active)

Your task in this section: give EC50 for each listed record.
1. CN(C)C(CN=C(S)Nc1ccc(Cl)cc1)c1cccnc1 (stereo not drawn)
2. CCOC(=O)C1(CCCc2ccccc2)CCN(Cc2cnn(C)c2)CC1
3. Cc1ccc(-n2cc(CNC(C)c3cnn(C)c3C)c(-c3ccc(F)cc3)n2)cc1 (stereo not drawn)
4. CN1CCC(=O)N([C@H](CSc2ccc(Br)cc2)Cc2ccccc2)CC1

Reply:
1. 14.7 nM (active)
2. 596 nM (active)
3. 376 nM (active)
4. 4730 nM (active)

====

Molecular target: Calpain-2 catalytic subunit (Sus scrofa, UniProt P43367)
Sequence (P43367 whole entry): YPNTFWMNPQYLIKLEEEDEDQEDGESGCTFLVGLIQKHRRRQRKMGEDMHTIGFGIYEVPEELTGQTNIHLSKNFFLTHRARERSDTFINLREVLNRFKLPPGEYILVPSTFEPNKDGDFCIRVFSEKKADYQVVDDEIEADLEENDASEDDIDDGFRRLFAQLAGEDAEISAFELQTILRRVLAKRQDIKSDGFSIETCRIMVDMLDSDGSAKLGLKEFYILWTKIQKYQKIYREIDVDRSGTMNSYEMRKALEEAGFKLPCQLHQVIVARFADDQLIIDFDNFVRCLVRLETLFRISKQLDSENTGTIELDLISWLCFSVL
Test: m-calpain protease blockers, concentration series – biochemical, fluorogenic peptide substrate, dose response (AID 1420)
Type: functional
Please provide measured IC50 for the entries that follow.

Record excerpt, results attached:
Cc1ccc(C(=O)NC(=S)NCc2cccnc2)c(C)c1 : > 50 µM (not active)
COc1ccc(-n2ncc(S(=O)(=O)c3ccccc3)c2-c2ccc(Cl)cc2)cc1 : 3.23 µM (not active)

Moving on to the next compound.
Ask: Please tell me the measured IC50 for Cc1ccc(N2C(=O)N(CC(=O)Nc3cc(C)cc(C)c3)C(=O)C2C)cc1 (stereo not drawn) ; system: Calpain-2 catalytic subunit (Sus scrofa, UniProt P43367).
Reply: > 50 µM (not active)

====

Please provide measured IC50 for the entries that follow.
Target: Orexin/Hypocretin receptor type 1 (Homo sapiens, UniProt O43613)
Sequence (O43613 whole entry): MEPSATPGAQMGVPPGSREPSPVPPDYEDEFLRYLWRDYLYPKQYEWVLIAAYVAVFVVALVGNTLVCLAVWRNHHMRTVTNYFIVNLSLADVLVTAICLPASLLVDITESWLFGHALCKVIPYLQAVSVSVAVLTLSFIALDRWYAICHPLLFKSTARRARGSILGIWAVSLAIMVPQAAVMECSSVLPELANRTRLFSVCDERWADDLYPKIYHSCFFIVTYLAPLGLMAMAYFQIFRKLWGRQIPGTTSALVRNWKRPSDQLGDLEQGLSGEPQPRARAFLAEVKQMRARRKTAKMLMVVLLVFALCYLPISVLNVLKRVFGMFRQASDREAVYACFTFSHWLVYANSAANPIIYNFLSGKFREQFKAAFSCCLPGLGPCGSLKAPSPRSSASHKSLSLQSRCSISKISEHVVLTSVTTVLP
Assay: Fluorescence-based cell-based high throughput dose response assay for antagonists of the orexin 1 receptor (OX1R; HCRTR1). [Related pubchem assays (depositor defined):AID434989, AID435008, AID463079, AID485270, AID492963, AID492964, AID492965, AID493232, AID504717, AID504718]
Assay type: functional
The source made the active and inactive calls.

CCn1c(SCC(=O)Nc2ccc3c(c2)c2ccccc2n3CC)nnc1-c1cnccn1 : 2180 nM (active)

Your task in this section: give IC50 for each listed record.
1. CCc1c(C)sc(N=C(S)Nc2nc(C)cc(C)n2)c1C(=O)OC
2. CSc1nc2ccc3nc(NC(=O)c4cccs4)sc3c2s1
3. N#CC(=C1SC=CS1)c1nc(-c2ccccc2)cs1

Reply:
1: 4290 nM (active); 2: 1230 nM (active); 3: 1020 nM (active)

====

Target: Protein skinhead-1 (Caenorhabditis elegans, UniProt P34707)
Sequence (P34707 whole entry): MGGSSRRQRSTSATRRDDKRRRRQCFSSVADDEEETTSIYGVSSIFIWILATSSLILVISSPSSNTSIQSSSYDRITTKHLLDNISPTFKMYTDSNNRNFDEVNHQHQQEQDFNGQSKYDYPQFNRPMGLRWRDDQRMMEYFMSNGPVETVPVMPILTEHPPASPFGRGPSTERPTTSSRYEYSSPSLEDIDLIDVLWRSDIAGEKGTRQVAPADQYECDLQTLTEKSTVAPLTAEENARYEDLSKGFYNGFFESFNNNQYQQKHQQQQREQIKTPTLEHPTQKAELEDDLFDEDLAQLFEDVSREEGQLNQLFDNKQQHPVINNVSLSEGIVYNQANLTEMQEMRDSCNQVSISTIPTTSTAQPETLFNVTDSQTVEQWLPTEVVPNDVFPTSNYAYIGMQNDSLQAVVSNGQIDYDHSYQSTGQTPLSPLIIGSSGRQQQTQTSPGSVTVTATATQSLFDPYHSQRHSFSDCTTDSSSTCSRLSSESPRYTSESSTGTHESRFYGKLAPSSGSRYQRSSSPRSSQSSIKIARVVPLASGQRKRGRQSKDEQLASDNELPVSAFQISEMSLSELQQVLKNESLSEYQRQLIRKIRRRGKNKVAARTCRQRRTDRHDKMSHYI
Assay type: functional
Active and inactive are the calls of the source.
The reply should be one of these categories: active, inactive

Illustrative cases are given below, each with its answer.
CCCCn1nnnc1NCc1ccc(C)s1 : inactive
CC1=NN(c2ccccc2)C(=O)/C1=C\C=C1/N(C)c2ccccc2C1(C)C : active
Fc1ccc(-c2nc(-c3cnccn3)no2)c(Cl)c1 : inactive
C=CCSc1ncc(-c2ccccc2)cn1 : active

Ask: Which outcome was entered for the compound `O=C(CSc1nnc(CN2CCOCC2)n1-c1ccc(Cl)cc1)N1CCc2ccccc21` in this test?
Reply: inactive

Ask: Which outcome was entered for the compound `c1ccc(-c2noc(-c3cccc4ccccc34)n2)cc1` in this test?
Reply: active

====

Please provide measured AC50 for the entries that follow.
Target: Acyl-homoserine lactone acylase PvdQ (Pseudomonas aeruginosa (strain LESB58), UniProt Q9I194)
Sequence (Q9I194 whole entry): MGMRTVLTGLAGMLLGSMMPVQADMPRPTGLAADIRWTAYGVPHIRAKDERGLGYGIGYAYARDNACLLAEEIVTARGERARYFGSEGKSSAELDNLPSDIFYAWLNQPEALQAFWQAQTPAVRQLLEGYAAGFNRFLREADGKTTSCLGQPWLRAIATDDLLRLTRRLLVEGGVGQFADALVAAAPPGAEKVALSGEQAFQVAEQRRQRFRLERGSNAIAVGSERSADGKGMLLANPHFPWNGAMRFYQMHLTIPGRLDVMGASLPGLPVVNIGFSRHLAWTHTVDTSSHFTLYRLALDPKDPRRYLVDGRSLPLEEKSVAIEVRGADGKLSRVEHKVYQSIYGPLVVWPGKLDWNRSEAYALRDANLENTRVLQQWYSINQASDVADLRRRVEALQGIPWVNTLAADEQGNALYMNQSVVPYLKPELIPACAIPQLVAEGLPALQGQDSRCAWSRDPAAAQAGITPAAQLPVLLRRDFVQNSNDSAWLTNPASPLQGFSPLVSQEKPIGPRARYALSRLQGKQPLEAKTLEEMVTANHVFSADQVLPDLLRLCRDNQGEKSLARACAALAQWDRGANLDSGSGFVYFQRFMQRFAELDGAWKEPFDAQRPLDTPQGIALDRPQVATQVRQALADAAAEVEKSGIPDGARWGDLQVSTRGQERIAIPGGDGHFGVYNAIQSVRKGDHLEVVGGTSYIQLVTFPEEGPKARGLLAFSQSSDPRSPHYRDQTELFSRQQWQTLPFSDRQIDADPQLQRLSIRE
Experiment: PvdQ acylase enzyme activity blockers – biochemical, fluorescence, plate reader and imaging, cherry-picks, dose response (AID 493231)
Activity calls are given as the source filed them.

Record excerpt, results attached:
N#CC1C(C#N)C2CCC1C1C2N1c1ccccc1 (centres undefined) : 7.8 µM (active)
CSC1=NC(=O)/C(=C/c2ccc(SC)cc2)S1 : 16.2 µM (active)
O=C(NC1CCCC1)c1cc(Cl)ccc1[N+](=O)[O-] : 0.948 µM (active)

Moving on to the next compound.
Ask: Read the entry `Cc1cc(NC(=O)Nc2ccccc2[N+](=O)[O-])no1` and write its reported AC50.
Reply: 2.02 µM (active)
